Values were extracted from ChEMBL document CHEMBL2440076.

Test system: OVCAR-5
protocol.notes: Growth inhibition of human OVCAR5 cells after 48 hrs by sulforhodamine B assay
Type: functional
condition.notes: OVCAR-5, 48 h
readout.kind: TGI

- mol.smiles: "COc1cc(-c2nn(-c3cccc(NC(=O)c4ccccc4)c3)cc2-c2ccncc2)ccc1Cl"
  observed.result: "> 100 µM"
- mol.smiles: "COc1cc(-c2nn(-c3cccc(NC(=O)c4ccc(Cl)c(C(F)(F)F)c4)c3)cc2-c2ccncc2)ccc1Cl"
  observed.result: "> 32.5 µM"
- mol.smiles: "COc1cc(-c2nn(-c3cccc(NC(=O)Nc4cccc(C(F)(F)F)c4)c3)cc2-c2ccncc2)ccc1Cl"
  observed.result: "6.45 µM"
- mol.smiles: "O=C(Nc1cccc(-n2cc(-c3ccncc3)c(-c3ccc(Cl)c(O)c3)n2)c1)Nc1cccc(C(F)(F)F)c1"
  observed.result: "> 32.5 µM"
- mol.smiles: "COc1cc(-c2nn(-c3cccc(NC(=O)c4cccc(C(F)(F)F)c4)c3)cc2-c2ccncc2)ccc1Cl"
  observed.result: "> 50 µM"

###

In this section, each of the molecules is paired with its reported growth at 10 µM.
Tested on: OVCAR-4
protocol.notes: Growth inhibition of human OVCAR4 cells assessed as cell growth at 10 uM after 48 hrs by sulforhodamine B assay
Type: functional
condition.notes: OVCAR-4, 48 h, read-out: Activity

- mol.smiles: "O=C(Nc1cccc(-n2cc(-c3ccncc3)c(-c3ccc(Cl)c(O)c3)n2)c1)Nc1ccc(Cl)c(C(F)(F)F)c1"
  target.or.test.system: "OVCAR-4"
  growth at 10 µM / %: -3.42
- mol.smiles: "COc1cc(-c2nn(-c3cccc(NC(=O)Nc4ccccc4)c3)cc2-c2ccncc2)ccc1Cl"
  target.or.test.system: "OVCAR-4"
  growth at 10 µM / %: 90.5
- mol.smiles: "O=C(Nc1cccc(-n2cc(-c3ccncc3)c(-c3ccc(Cl)c(O)c3)n2)c1)Nc1cccc(C(F)(F)F)c1"
  target.or.test.system: "OVCAR-4"
  growth at 10 µM / %: 41.5
- mol.smiles: "COc1cc(-c2nn(-c3cccc(NC(=O)c4ccc(Br)c(C)c4)c3)cc2-c2ccncc2)ccc1Cl"
  target.or.test.system: "OVCAR-4"
  growth at 10 µM / %: 86.2

###

System: SF-268
protocol.notes: Growth inhibition of human SF268 cells after 48 hrs by sulforhodamine B assay
Assay type: functional
condition.notes: SF-268, 48 h
In this section, each of the compounds is paired with its reported TGI.
readout.kind: TGI (µM)

- mol.smiles: "COc1cc(-c2nn(-c3cccc(NC(=O)c4ccccc4)c3)cc2-c2ccncc2)ccc1Cl"
  result.qualifier: ">"
  observed.result: 100
- mol.smiles: "O=C(Nc1cccc(-n2cc(-c3ccncc3)c(-c3ccc(Cl)c(O)c3)n2)c1)Nc1cc(C(F)(F)F)cc(C(F)(F)F)c1"
  result.qualifier: "="
  observed.result: 2.69
- mol.smiles: "COc1cc(-c2nn(-c3cccc(NC(=O)Nc4cc(C(F)(F)F)cc(C(F)(F)F)c4)c3)cc2-c2ccncc2)ccc1Cl"
  result.qualifier: "="
  observed.result: 2.43
- mol.smiles: "COc1cc(-c2nn(-c3cccc(NC(=O)c4ccc(Cl)c(C(F)(F)F)c4)c3)cc2-c2ccncc2)ccc1Cl"
  result.qualifier: ">"
  observed.result: 32.5
